Attribute: activation factor
# Test system: alkaline phosphatase, intestinal [Bos taurus]
# experiment_summary: IAP enzyme activity enhancers – biochemical, bovine IAP, CDP-star luminescence, primary screen (AID 1016)
# condition_parameters: purified bovine IAP, 30 min, at 20 µM, active compounds read high, fold of DMSO-control signal, blank-subtracted
About 330 (0.17%) of roughly 200,000 compounds were called active. This excerpt belongs to a sample that is enriched for actives.
Just the number, please.

- molecule: "C/C(Cc1ccccc1)=N\\NC(=O)CNC(=O)c1cccc(Br)c1"
  activation factor: 0.9
- molecule: "O=C1C2C3C=CC(C3)C2C(=O)N1c1ccc(-c2nc3ccccc3c(=O)o2)cc1 (stereo not given)"
  activation factor: 1.1

Notebook: `[O-][n+]1c2c(nn1-c1ccc(Cl)c(Cl)c1)-c1nonc1CC2` , activation factor read as 1.1

Notebook: `COCCNC(=O)/C(C#N)=C/c1nc(N(C)C)n(-c2ccc(F)cc2)c1Cl` , activation factor read as 1

Notebook: `O=[N+]([O-])c1cc(S(=O)(=O)Nc2cccc(Cl)c2)ccc1N=Nc1c(O)[nH]c2ccccc12` , activation factor read as 0.8

Notebook: `COc1ccc(CCNC(=O)CSc2nc(-c3ccc(OC)c(OC)c3)ccc2C#N)cc1` , activation factor read as 2.1

Notebook: `CN(c1ccc(OCC(=O)OCC(=O)Nc2cccc([N+](=O)[O-])c2)cc1)S(=O)(=O)c1ccc(F)cc1` , activation factor read as 0.8

Notebook: `COc1cccc(-c2ccc(C#N)c(SCC(=O)NCCc3ccc(Cl)cc3)n2)c1` , activation factor read as 0.8

Notebook: `COc1ccc(/C=N/n2c(C)cc(C)cc2=O)cc1` , activation factor read as 1.2

Notebook: O=C(NN1C(=O)C2C3C=CC(O3)C2C1=O)c1ccncc1 (stereo not given) , activation factor read as 0.8

Where do these numbers come from? They come from PubChem BioAssay AID1016.
